Reported values of Kd for individual entries
target: ASGPR (Homo sapiens (Human)); assay: Affinity to ASGPR measured by surface plasmon resonance (SPR); format: binding; details: ASGPR ligands, Table 2; Biacore 8K, 25° C., steady state fit; read-out: SPR Binding External Calculation: KD
Sequence (P07306 whole entry): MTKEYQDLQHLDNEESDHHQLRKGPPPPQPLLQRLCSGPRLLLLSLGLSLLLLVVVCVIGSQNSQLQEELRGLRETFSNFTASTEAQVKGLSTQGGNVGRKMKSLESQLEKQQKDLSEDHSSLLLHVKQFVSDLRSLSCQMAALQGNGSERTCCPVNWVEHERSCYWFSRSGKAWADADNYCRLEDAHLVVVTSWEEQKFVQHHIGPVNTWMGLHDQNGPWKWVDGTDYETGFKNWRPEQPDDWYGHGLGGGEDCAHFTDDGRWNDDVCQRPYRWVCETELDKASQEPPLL

{"Smiles entry": "CO[C@@H]1O[C@H](CO)[C@H](O)[C@H](O)[C@H]1Nc1ncc(Cl)cc1F", "Kd": "< 100 µM"}
{"Smiles entry": "N[C@H]1CO[C@H](CO)[C@H](O)[C@@H]1O", "Kd": "> 1000 µM"}
{"Smiles entry": "CO[C@@H]1O[C@H](CO)[C@H](O)[C@H](O)[C@H]1Nc1nc(Cl)ns1", "Kd": "< 100 µM"}
{"Smiles entry": "CC(=O)NC[C@@H]1CO[C@H](CO)[C@H](O)[C@@H]1O", "Kd": "100 to 500 µM"}
{"Smiles entry": "C[C@@H]1[C@H](Oc2ccccc2)O[C@H](CO)[C@H](O)[C@@H]1O", "Kd": "> 1000 µM"}
{"Smiles entry": "OC[C@H]1OC[C@@H](c2ccc(F)cc2)[C@@H](O)[C@H]1O", "Kd": "500 to 1000 µM"}
{"Smiles entry": "O=c1nc(N[C@H]2CO[C@H](CO)[C@H](O)[C@@H]2O)[nH]c(=O)[nH]1", "Kd": "100 to 500 µM"}
{"Smiles entry": "OC[C@H]1OC[C@H](Nc2ncc(F)cc2F)[C@@H](O)[C@H]1O", "Kd": "100 to 500 µM"}
